- assaySystem: KRAS WT (Homo sapiens, UniProt P01116+P62937)
- Sequence (P01116 1-169 isoform P01116-2 limits assumed): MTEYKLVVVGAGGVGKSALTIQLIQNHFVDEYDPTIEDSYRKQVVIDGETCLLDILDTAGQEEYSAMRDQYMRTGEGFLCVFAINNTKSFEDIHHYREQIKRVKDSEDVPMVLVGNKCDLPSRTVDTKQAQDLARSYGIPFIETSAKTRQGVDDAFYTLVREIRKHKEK
- Sequence (P62937 whole entry): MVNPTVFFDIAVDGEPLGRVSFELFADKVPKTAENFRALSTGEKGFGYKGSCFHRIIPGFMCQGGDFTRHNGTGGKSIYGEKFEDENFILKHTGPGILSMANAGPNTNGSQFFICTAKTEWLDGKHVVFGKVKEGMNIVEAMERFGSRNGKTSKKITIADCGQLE
- measurementDescription: Ras-Raf disruption / FRET / MOA assay (BRAF RBD)
- Assay type: biochemical
- measurementContext: Ras-Raf disruption, with Cyclophilin A; read-out: KRAS WT FRET data IC50
pIC50: −log10 of the molar value.
Recorded pIC50, one value per entry.

CCn1c(-c2cccnc2[C@H](C)OC)c2c3cc(ccc31)-c1cc(O)cc(c1)C[C@H](NC(=O)[C@H](C(C)C)N(C)C(=O)N(C)CCN(C)C(=O)[C@H]1CN1)C(=O)N1CCC[C@H](N1)C(=O)OCC(C)(C)C2 (atropisomer, axis not shown) ... 7.00 to 8.00

Q: Param item = CCn1c(-c2cccnc2[C@H](C)OC)c2c3cc(ccc31)-c1cc(O)cc(c1)C[C@H](NC(=O)[C@H](C(C)C)N(C)C(=O)[C@H]1CCCCN(C(=O)[C@H]3CN3)C1)C(=O)N1CCC[C@H](N1)C(=O)OCC(C)(C)C2 (atropisomer, axis not shown) ; retrieve measured pIC50.
Result: 6.00 to 7.00

Q: Param item = CCn1c(-c2cccnc2[C@H](C)OC)c2c3cc(ccc31)-c1csc(n1)C[C@H](NC(=O)[C@H](C(C)C)N(C)C(=O)N1CC(CN(C)C(=O)[C@@H]3CN3)C1)C(=O)N1CCC[C@H](N1)C(=O)OCC(C)(C)C2 (atropisomer, axis not shown) ; retrieve measured pIC50.
Result: 6.00 to 7.00

Q: Param item = CCn1c(-c2cccnc2[C@H](C)OC)c2c3cc(ccc31)-c1cc(O)cc(c1)C[C@H](NC(=O)[C@H](C(C)C)N(C)C(=O)[C@H]1CCN(S(=O)(=O)[C@H]3CN3C)C1)C(=O)N1CCC[C@H](N1)C(=O)OCC(C)(C)C2 (single isomer, unassigned) ; retrieve measured pIC50.
Result: 6.00 to 7.00
